IC50 values by entry
- target.or.system: T1, recombinant hIL1RAP Domain1+2+3 (aa21-367) (human, UniProt Q9NPH3 21-367)
- T1 construct: Numbering on Uniprot Q9NPH3
- T1 sequence (looked up): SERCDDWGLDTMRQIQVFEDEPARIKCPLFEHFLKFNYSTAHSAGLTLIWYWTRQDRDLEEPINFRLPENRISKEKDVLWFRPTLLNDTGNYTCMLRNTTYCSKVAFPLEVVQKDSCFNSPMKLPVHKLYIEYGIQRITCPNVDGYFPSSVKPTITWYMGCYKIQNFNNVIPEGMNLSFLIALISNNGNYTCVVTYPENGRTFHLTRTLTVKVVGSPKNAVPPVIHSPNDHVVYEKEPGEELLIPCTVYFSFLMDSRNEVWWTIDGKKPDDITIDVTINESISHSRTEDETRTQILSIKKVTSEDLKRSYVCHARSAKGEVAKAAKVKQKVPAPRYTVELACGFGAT
- test.method.notes: binding ELISA, coated recombinant hIL1RAP aa21-367
Kindly answer with a numeric value in mg/L, unit omitted.

Some binders with known IC50 results, for comparison:
binder | IC50, mg/L
h48D2 VH1:VL5 (antibody, human IgG1, kappa, L234A L235A, V domains shown, Humanized; also called VL5:VH1) VH: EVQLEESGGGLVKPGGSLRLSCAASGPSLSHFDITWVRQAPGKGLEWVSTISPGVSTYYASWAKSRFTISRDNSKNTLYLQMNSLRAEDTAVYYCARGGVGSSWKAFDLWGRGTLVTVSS VL: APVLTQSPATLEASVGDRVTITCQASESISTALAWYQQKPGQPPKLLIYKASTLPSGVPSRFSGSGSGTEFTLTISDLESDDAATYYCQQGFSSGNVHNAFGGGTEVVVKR | 0.0234
h48D2 VH4:VL2 (antibody, human IgG1, kappa, L234A L235A, V domains shown, Humanized; also called VL2:VH4) VH: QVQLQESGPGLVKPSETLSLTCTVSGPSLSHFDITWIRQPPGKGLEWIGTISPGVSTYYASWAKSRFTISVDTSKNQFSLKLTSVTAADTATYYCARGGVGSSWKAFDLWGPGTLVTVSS VL: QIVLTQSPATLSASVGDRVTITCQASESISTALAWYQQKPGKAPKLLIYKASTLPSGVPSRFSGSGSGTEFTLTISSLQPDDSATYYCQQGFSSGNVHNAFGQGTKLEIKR | 0.0322

Would you kindly look at the next entry?
q: Specify reported IC50 for the binder shown: h48D2 VH1:VL1 (antibody, human IgG1, kappa, L234A L235A, V domains shown, Humanized; also called VL1:VH1) VH: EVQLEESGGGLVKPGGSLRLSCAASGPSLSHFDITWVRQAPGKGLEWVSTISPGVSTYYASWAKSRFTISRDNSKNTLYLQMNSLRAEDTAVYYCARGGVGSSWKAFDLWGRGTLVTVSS VL: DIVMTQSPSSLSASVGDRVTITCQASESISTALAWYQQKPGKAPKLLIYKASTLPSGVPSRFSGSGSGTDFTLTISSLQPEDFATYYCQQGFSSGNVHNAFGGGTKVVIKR
a: 0.0181
